# System: NCI-H226 lung
# TEST SUMMARY: NCI-60 one-dose screen, 48 h
# RECORDED CONDITIONS: 10 µM unless noted
This is part of a sample that, as a whole, favours compounds with a hit. Of some 83,000 tested, about 20% had one in any assay. Activity calls are given as the source filed them. Rule for the calls: active = growth percent below 10; inactive = the rest.
Valid outcomes are listed here; reply with one: T for active, F for inactive

Would you please look over these solved cases?
>  <COMPOUND>
Cn1ncc(Cl)c1-c1cc(C(=O)N[C@H](CN)Cc2cccc(F)c2)sc1Cl

>  <TEST SYSTEM>
NCI-H226 lung

>  <LABEL CLASS>
F

$$$$
>  <COMPOUND>
COc1ccc(-c2cc3c(C)nc(N)nc3n(C3CCC(OCCO)CC3)c2=O)cn1 (stereo not given)

>  <TEST SYSTEM>
NCI-H226 lung

>  <LABEL CLASS>
T

$$$$
>  <COMPOUND>
C=C1C(=O)O[C@H]2[C@H]1CC/C(Cn1cc(-c3cc(C)c(C)cc3C)nn1)=C\CC[C@@]1(C)O[C@@H]21

>  <TEST SYSTEM>
NCI-H226 lung

>  <LABEL CLASS>
T

$$$$

Query: Returns: the outcome recorded for `Cn1ccnc1C(=O)/C=C/c1ccc(CC(=O)Nc2ccc(C(F)(F)F)cc2)cc1` in this assay.
Result: F

Query: Test call for this compound, please: `COC(=O)[C@@H](C)CNS(=O)(=O)N(c1cc(C(F)(F)F)cc(C(F)(F)F)c1)C1CCN(Cc2ccc(F)cc2)CC1`
Result: F

----------
# Test system: MDA-MB-435 melanoma
# TEST SUMMARY: NCI-60 one-dose screen, 48 h (100 = growth as untreated, 0 = no growth, -100 = all killed)
# RECORDED CONDITIONS: 10 µM unless noted
This is part of a sample that, as a whole, favours compounds with a hit. Of some 83,000 tested, about 20% had one in any assay.
Field: label. Allowed values: condition met (growth < 40%) or condition not met (growth >= 40%).

Sample answers from the record:
>  <SMILES STRING>
CC[n+]1c(/C=C/C=C2\N(C)c3ccccc3C2(C)C)sc2ccccc21

>  <LABEL CLASS>
condition met

$$$$
>  <SMILES STRING>
C/C(=C(/c1ccc(Cl)cc1)c1ccc(OCCN2CCCCCC2)cc1)c1ccccc1

>  <LABEL CLASS>
condition not met

$$$$
>  <SMILES STRING>
CCN1/C(=C/C=C/c2n(-c3ccccc3)c3ccc(-c4nc5ccccc5s4)cc3[n+]2CC)N(c2ccccc2)c2ccc(-c3nc4ccccc4s3)cc21

>  <LABEL CLASS>
condition met

$$$$
>  <SMILES STRING>
CNC(=O)CN1CCC(Oc2cc3c(Nc4cccc(Cl)c4F)ncnc3cc2OC)CC1

>  <LABEL CLASS>
condition not met

$$$$
>  <SMILES STRING>
Cc1ccc(NC(=O)c2ccc(CN3CC[C@H](N(C)C)C3)c(C(F)(F)F)c2)cc1Nc1nccc(-c2cncnc2)n1

>  <LABEL CLASS>
condition met

$$$$

Query: Does this compound meet the criterion growth < 40%? `CCCCN1C(=O)c2cccc3c(-c4ccc5c(c4)ncn5C4CCCCC4)ccc(c23)C1=O`
Result: condition not met

Query: Could you please tell me whether growth recorded for `CCc1nc2cc(F)c(/C=C/C(=O)NO)cc2c(=O)n1CCc1ccccc1` is less than 40%?
Result: condition met

Query: In plain terms, does `C=C1[C@@H](O)C[C@H]2C(C)(C)C[C@H](Cl)C[C@]2(C)[C@H]1C[C@H](O)[C@H]1CC(=O)NC1=O` come in under 40% for growth?
Result: condition met

Query: Find out if reported growth for `CCN1CCN(Cc2ccc(-c3cc4c(N[C@H](C)c5ccccc5)ncnc4[nH]3)cc2)CC1` is less than 40%
Result: condition met

----------
# Tested on: LOX IMVI melanoma
# TEST SUMMARY: NCI-60 one-dose screen, 48 h (100 = growth as untreated, 0 = no growth, -100 = all killed)
# RECORDED CONDITIONS: 10 µM unless noted
About 83,000 compounds went through this panel and 20% of them were active in at least one assay; those are over-represented in the sample as a whole.
Measured growth accompanies every entry in the list below.
Form entry: value (%) — number only.

As a guide, the following entries are already answered.
>  <MOLECULE>
C=CC(=O)N(C)[C@H]1C[C@H]2OC(C)(C1OC)n1c3ccccc3c3c4c(c5c6ccccc6n2c5c31)C(=O)NC4 (some centres undefined)

>  <growth / %>
-55.6

$$$$
>  <MOLECULE>
CCOC(=O)c1sc(NC(=O)COc2ccc(/C=C3\Cc4ccc(Cl)cc4C3=O)cc2)nc1C

>  <growth / %>
97.9

$$$$
>  <MOLECULE>
CNC(=O)c1ccccc1Nc1nc(Nc2ccc3c(c2OC)CCC[C@H](N2CCN(CCO)CC2)C3)ncc1Cl

>  <growth / %>
-89.6

$$$$
>  <MOLECULE>
Cc1nc(NC(=O)N2CCC[C@H]2C(N)=O)sc1-c1ccnc(C(C)(C)C(F)(F)F)c1

>  <growth / %>
18.8

$$$$
>  <MOLECULE>
COc1cc2c(cc1OCCCCN1CCN(CC(=O)Nc3ccc(Cl)cc3C(=O)c3ccccc3Cl)CC1)N=CC1CCCN1C2=O (centres undefined)

>  <growth / %>
-84.4

$$$$

For the next question, use this molecule.
growth measured on `O=C(c1ccc(F)c(F)c1Nc1ccc(I)cc1F)N1CC(O)([C@@H]2CCCCN2)C1` = -84.1

----------
# Tested on: MDA-MB-231 breast
# TEST SUMMARY: NCI-60 one-dose screen, 48 h
# RECORDED CONDITIONS: 10 µM unless noted
The panel holds about 83,000 compounds, 20% with a hit somewhere; the sample as a whole holds those more often. Active and inactive are the calls of the source. The calls were made as follows: active = growth percent below 10; inactive = the rest.
Allowed answers: T (active), F (inactive)

Look over these answered cases.
>  <COMPOUND>
O=C(Nc1nc2cccc(-c3ccc(CN4CCS(=O)(=O)CC4)cc3)n2n1)C1CC1

>  <TEST SYSTEM>
MDA-MB-231 breast

>  <LABEL CLASS>
F

$$$$
>  <COMPOUND>
C=CC(=O)Nc1cc2c(Nc3ccc(F)c(Cl)c3)ncnc2cc1C#CC(C)(C)N1CCN(C)CC1

>  <TEST SYSTEM>
MDA-MB-231 breast

>  <LABEL CLASS>
T

$$$$

Query: Outcome logged for `CC[C@H](Nc1ncnc2nc[nH]c12)c1nc2cccc(F)c2c(=O)n1-c1ccccc1` in this assay:
Result: F

Query: Which result was noted for this compound in the test: CO[C@H](C(=O)N[C@@H](CCCCNC(=O)OCc1ccccc1)C(=O)OC(C)(C)C)[C@@H]1Cc2cc3cc(OC4CC(OC5CC(O)C(O)C(C)O5)C(O)C(C)O4)c(C)c(O)c3c(O)c2C(=O)[C@H]1OC1CC(OC2CC(OC3CC(C)(O)C(O)C(C)O3)C(O)C(C)O2)C(O)C(C)O1 (stereo not given in full)
Result: T

Query: Recorded call for `COc1cc(N2CCC(N3CCN(C)CC3)CC2)ccc1Nc1ncnc(Nc2ccccc2S(=O)(=O)C(C)C)n1` ?
Result: F

----------
# Test system: NCI-H23 lung
# TEST SUMMARY: NCI-60 one-dose screen, 48 h (100 = growth as untreated, 0 = no growth, -100 = all killed)
# RECORDED CONDITIONS: 10 µM unless noted
The panel holds about 83,000 compounds, 20% with a hit somewhere; the sample as a whole holds those more often.
Output: class label from growth. Mapping: low bin (below 20%), mid bin (20% to below 70%), high bin (70% or more)

Answered examples (5):
>  <COMPOUND>
C/C(=C(/c1ccc(Cl)cc1)c1ccc(OCCN2CCCCCC2)cc1)c1ccccc1

>  <LABEL CLASS>
high bin

$$$$
>  <COMPOUND>
CC(C)(C)CC(C)(C)Nc1c(-c2c(O)c3ccccc3oc2=O)nc2c(Cl)cc(C(F)(F)F)cn12

>  <LABEL CLASS>
high bin

$$$$
>  <COMPOUND>
COc1ccc2nc3cc(Cl)ccc3c(Nc3ccc(N(C)C)cc3)c2c1

>  <LABEL CLASS>
high bin

$$$$
>  <COMPOUND>
COc1cc(Nc2ncc(F)c(Nc3ccc4c(n3)N(COP(=O)(O)O)C(=O)C(C)(C)O4)n2)cc(OC)c1OC

>  <LABEL CLASS>
mid bin

$$$$
>  <COMPOUND>
Cc1cc(NCC(=O)Nc2ccc(-c3nc4ccccc4s3)cc2)no1

>  <LABEL CLASS>
high bin

$$$$

Query: Form field 'band' for COC(=O)[C@H](Cc1ccccc1)NC(=O)[C@@H](OC)[C@@H]1Cc2cc3cc(OC4CC(OC5CC(O)C(O)C(C)O5)C(O)C(C)O4)c(C)c(O)c3c(O)c2C(=O)[C@H]1OC1CC(OC2CC(OC3CC(C)(O)C(O)C(C)O3)C(O)C(C)O2)C(O)C(C)O1 (stereo partly specified)
Result: low bin

Query: Into which bin does this compound go? `COc1ccc(-c2ccc3ncc4c(c3c2)n(-c2ccc(N3CCNCC3)c(C(F)(F)F)c2)c(=O)n4C)cn1`
Result: low bin

Query: Input `Nc1cc(C(F)(F)F)c(-c2cc(N3CCOCC3)nc(N3CCOCC3)n2)cn1` ; output its category
Result: low bin

Query: Pick a category. Item: `CCc1nc2cc(F)c(/C=C/C(=O)NO)cc2c(=O)n1CCc1ccccc1`
Result: mid bin

Query: # bin label for `CO[C@H]1C[C@@H]2CC[C@@H](C)[C@@](O)(O2)C(=O)C(=O)N2CCCC[C@H]2C(=O)O[C@H]([C@H](C)C[C@@H]2CC[C@@H](OC(=O)C(C)(CO)CO)[C@H](OC)C2)CC(=O)[C@H](C)/C=C(\C)[C@@H](O)[C@@H](OC)C(=O)[C@H](C)C[C@H](C)\C=C/C=C/C=C/1C`
Result: mid bin

Query: Where would `O=C(Nc1cn[nH]c1-c1nc2ccc(CN3CCOCC3)cc2[nH]1)NC1CC1` land among the classes by reported growth?
Result: mid bin

Query: Class? Entry: `COc1cc2ncnc(Oc3cccc(NC(=O)Nc4cc(C(C)(C)C(F)(F)F)on4)c3)c2cc1OC`
Result: low bin

These measurements were taken from PubChem BioAssay (NCI).
